B1: CPEB3 Ribozyme (parent)
chain: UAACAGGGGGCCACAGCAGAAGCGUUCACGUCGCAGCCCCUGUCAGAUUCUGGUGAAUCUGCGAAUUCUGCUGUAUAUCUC

- Variants of: B1
- ASSAY OVERVIEW: self-cleavage, relative activity (ratio to wild type); higher = more cleavage; in vitro, sequencing
# cutoff 0.3 applies to self-cleavage; >= gives true (1), < gives false (0)

Tell me whether self-cleavage is at least 0.3 here: UAACCGGGGGCCACAGCAGAAGCGUUCACGUCGCAGCCCCUGUCAGUUUCUGGUGAAUCUGCGAAUUCUGCUGUAUAUCUC
true (1)

Would you say UAACAGGGGGCCACAGCAGAAGUGUUCACGUUGCAGCCCCUGUCAGAUUCUGGUGAAUCUGCGAAUUCUGCUGUAUAUCUC shows self-cleavage at minimum 0.3?
false (0)

Could you verify whether the entry UAACAGGGGGCCACAGCAGAAGCGUUCACGUCGCAGCCCCUGUCAGAUUCUGGUGAAUCUGCGAAUUCUGCCGGAUAUCUC shows self-cleavage of no less than 0.3?
true (1)

# check: self-cleavage of UAGCAGGGGCCCACAGCAGAAGCGUUCACGUCGCAGCCCCUGUCAGAUUCUGGUGAAUCUGCGAAUUCUGCUGUAUAUCUC is greater than or equal to 0.3
true (1)

Could you tell me if the measured self-cleavage of UAACAGGGGGCCACAGCAGAGGCGUUCACGGCGCAGCCCCUGUCAGAUUCUGGUGAAUCUGCGAAUUCUGCUGUAUAUCUC reaches 0.3 or more?
true (1)

Quick check: does UAACAGGGGGCCACAGCAGAAGCGUUCACGUCGCAGCCCCUGUCAGAUUCUGGUGAAUCUUCGAAUUCUGCGGUAUAUCUC have self-cleavage greater than or equal to 0.3?
true (1)

Dear colleague, could you confirm whether UAACAGGGGGCCACAGCAGAAGCGUUCACGUCGCAGCCCCAGUCAGAUUCUGGUGAAUCUGCGAAUUCUGCAGUAUAUCUC has self-cleavage at or above 0.3?
false (0)

Decide: self-cleavage of UAACAGGGGGCCACAGCAGAAGCGUUCAAGUCGCAGCCCCUGUCAGAUUCUGGUGAAUCUGCGAAUUCUGCUGUAUAUCCC >= 0.3?
true (1)

Is reported self-cleavage greater than or equal to 0.3 here: UAACAGGGGGCCACAGCAGAAGCGUUCACGUCGCAGCCCCUGUCAGAUUCUGGUGAAUCUGCAAAAUCUGCUGUAUAUCUC
true (1)

Assess whether reported self-cleavage for UAACAGGGGGCCACAGCAGAAGCGUUCACGUCGCAGCCCCUGUCAGACUCUGGUGAAUCUGCGAAUUCAGCUGUAUAUCUC sits at 0.3 or higher.
true (1)

Is the recorded value of self-cleavage equal to or greater than 0.3 for this variant? UAACAGGGGGCCACAGCAGAAGCGUUCACGUCGCAGCCCCUGUCAGAUUCUGGUGAAUCUGCGUAUUCUGCUGUAGAUCUC
false (0)

For this variant, is measured self-cleavage 0.3 or higher? UAACAGGGGGCCACAGCGGAAGCGUUCACGUCGCAGCCCCUGUCAGAUUCUGGUGAAUCUGCGAAUUCUACUGUAUAUCUC
true (1)

Check this variant for self-cleavage at or above 0.3: GAACAGGGGGCCACAGCAGAAGCGUCCACGUCGCAGCCCCUGUCAGAUUCUGGUGAAUCUGCGAAUUCUGCUGUAUAUCUC
true (1)

Say whether UAACAGGGGGCCACAGCUGAAGCGUUCACGUCGCAGCCCCUGUCAGAUUUUGGUGAAUCUGCGAAUUCUGCUGUAUAUCUC shows self-cleavage of 0.3 or more.
true (1)

# bool: self-cleavage of UAACAGGGGGCCACAGCAGAAGCGUUCACGUCGCAGCCCCAGUCAGAUUCUGGUGAAUCUGCAAAUUCUGCUGUAUAUCUC >= 0.3
true (1)

Tell me whether self-cleavage is at least 0.3 here: UAACAGGGGGCCACAGCAGAAGCGUUCACGUCGCAGCCCCUGUCAGAUUCAGGUGAAUCUGCGAAUUCUGCUGUAUAUGUC
true (1)

Please tell me: is the variant UAACCGGGGGCCACAGCAGAAGCGUUCACGUCGCGGCCCCUGUCAGAUUCUGGUGAAUCUGCGAAUUCUGCUGUAUAUCUC at or over 0.3 in terms of self-cleavage?
true (1)

Decide: is the reported value of self-cleavage for UAACAGGGGGCCAAAGCAGAAGCGUUCACGUCGCAGCCCCUGUCAGAUUCUGGUGAAUCUGCGAAUUCUGCUGUAUACCUC equal to or greater than 0.3?
true (1)

Item UAACAGGGGGCCACAGCAGAAGCGUUCACGUCGCAGCCCCUGUCAGAUUCUGGUGAAUCUGAGAAUUCUGCUGUAUACCUC with self-cleavage of 0.3 or above?
false (0)

Item UAACAGGGGGCCACAGCAGAAGCGUUCACGUCGCAGCCCCUGUCAGAUUCAGGUGAAUCUGCGAAUUCUGCUGUAUAUCUA with self-cleavage of 0.3 or above?
true (1)

Could you tell me if the measured self-cleavage of UAACGGGGGGCCACAGCAAAAGCGUUCACGUCGCAGCCCCUGUCAGAUUCUGGUGAAUCUGCGAAUUCUGCUGUAUAUCUC reaches 0.3 or more?
true (1)

Determine whether measured self-cleavage meets or exceeds 0.3 for UAACAGGGGGCCACAGCAGAAGCGUUCACGUCGCAGCCCCUGUCAGAUUCUGGUGAAUCUGCGAAUUCCGAUGUAUAUCUC
false (0)

Could you verify whether the entry UAACAGGGGGCUACAGCAGAAGCGUUCACGUCGCAGCCCCUGUCAGAUUCUGGUGAAUCUGCGAAUUCUGUUGUAUAUCUC shows self-cleavage of no less than 0.3?
true (1)

Does UAACAGGGGGCCACAGCAGAAGCGUUCACGUCGCAGCCCCUGUCAGAUUCUGGUGAUUCUGCGUAUUCUGCUGUAUAUCUC have a reported self-cleavage of at least 0.3?
false (0)

Does the reported self-cleavage for UAACAGGGGGCCACAGCAGAAGCGUUCACGUCGCAGCCCCAGUCAGAUUCUGGUGAAUCUGCGAAUUCUGCUUUAUAUCUC fall at or above the 0.3 mark?
true (1)

Is it the case that UAACAGGGGGCCACAGCAGAAGCAUUCACGUCGCAGCCCCUGUCAGAUUCUGGUGAAUCUGCGAAUUCUGUUGUAUAUCUC has self-cleavage reaching or exceeding 0.3?
true (1)

Hi, just wondering whether UAACAGGGGGCCACAGCAGAAGCGUUCACUUCGCAGCCCCUGUCAGAUUCUGGUGAAUCUGCGAAUUCUGCUGUAAAUCUC shows self-cleavage of 0.3 or higher.
true (1)

Assess whether reported self-cleavage for UAACAGGGGGCCACAGCAGAAGCGUUCGCGUCGCAGCCCCUGUCAGAUUCUGGUUAAUCUGCGAAUUCUGCUGUAUAUCUC sits at 0.3 or higher.
true (1)

Does the reported self-cleavage for UAACAGGGGGCCACAGCAGAAGCGUUCACGUCGCAGCCCCUGUCAGAUUCUGGUGAAUCUGCGAAUACUGCGGUAUAUCUC fall at or above the 0.3 mark?
true (1)

Can UAACAGGGGGCCACAGCAGAAGCGUUCACGUCGCAGCCCCUGUCAGAUUCUGGUGAAUCAGUGAAUUCUGCUGUAUAUCUC be said to have self-cleavage at or above 0.3?
false (0)

In plain terms: is recorded self-cleavage at least 0.3 for UUACAGGGGGCCACGGCAGAAGCGUUCACGUCGCAGCCCCUGUCAGAUUCUGGUGAAUCUGCGAAUUCUGCUGUAUAUCUC ?
true (1)

Is the recorded value of self-cleavage equal to or greater than 0.3 for this variant? UAACAGGGGGCCACAGCAGAAGCGUUCACGUCGCAGCCCCAGUCAUAUUCUGGUGAAUCUGCGAAUUCUGCUGUAUAUCUC
false (0)

State whether the measured self-cleavage reaches 0.3, counting equality as reaching it, for UAACAGGGGGCCACAGCAGAAGCGUUCACGUCGCAGCCCCUGACAGAUUCUGGUGAAUCUGCAAAUUCUGCUGUAUAUCUC
true (1)

I'd appreciate it if you could say whether UAGCACGGGGCCACAGCAGAAGCGUUCACGUCGCAGCCCCUGUCAGAUUCUGGUGAAUCUGCGAAUUCUGCUGUAUAUCUC has self-cleavage at least equal to 0.3.
true (1)

Tell me whether self-cleavage is at least 0.3 here: UAACAGGGGGCCACAGCAGAAGCGUUCACGUCGCAGCCACUGUCAGAUUCUGGUGAAUCUGCGAAUUCUGCUGUAUAUCUC
true (1)

In plain terms: is recorded self-cleavage at least 0.3 for UUACAGGGGGCCACAGCAGAAGCGUUCACGUCGCGGCCCCUGUCAGAUUCUGGUGAAUCUGCGAAUUCUGCUGUAUAUCUC ?
true (1)

Confirm if self-cleavage reported for the variant UAACAGGGGGUCACAGCAGAAGCGUUCACGUCGCAGCCCCUGUCAGAUUCUGGUGAAUCUGCGAAUUCUGCUGAAUAUCUC is 0.3 or above.
true (1)

API: above_or_equal(metric=self-cleavage, cutoff=0.3) for item UAACAGGGGCCCACAGCAGAAGCGUUCACGUCGCAGCCCCUGUCAGAUUCUGGUGAAUCUGCGAAUACUGCUGUAUAUCUC
false (0)

Is self-cleavage at least 0.3? Consider UAACAGGGGGUCACAGCAGAAGCGUUCACGACGCAGCCCCUGUCAGAUUCUGGUGAAUCUGCGAAUUCUGCUGUAUAUCUC
true (1)

Hello, I need to know if UAGCAGGGGGCCACAGCAGAGGCGUUCACGUCGCAGCCCCUGUCAGAUUCUGGUGAAUCUGCGAAUUCUGCUGUAUAUCUC has measured self-cleavage not below 0.3. Thanks!
true (1)

Reported self-cleavage reaches at least 0.3 for UAUCAUGGGGCCACAGCAGAAGCGUUCACGUCGCAGCCCCUGUCAGAUUCUGGUGAAUCUGCGAAUUCUGCUGUAUAUCUC ?
true (1)

Threshold query (self-cleavage >= 0.3) on UAACAGGGGGCCGCAGCAGAAGCGUUCACGUCGCAGCCCCUGUCAGAUUCUGGUGAAUCCGCGAAUUCUGCUGUAUAUCUC
true (1)

self-cleavage >= 0.3 for UAACAGGGGGCCACAGCAGAAGUGUUCACGUCGCAGCCCCUGUCAGAUUCUAGUGAAUCUGCGAAUUCUGCUGUAUAUCUC ?
true (1)

Answer whether self-cleavage of UAACAGGGGGCCACAGCAGAAGCGUUCACGUCGCAGCCCCUGUCAGAUACUGGUGAAUCUGCGAAUUCUGCUGUAUAUCAC is greater than or equal to 0.3.
true (1)

Does UAACAGGGGGCCACAGCAGAAGUGUUCACGUCGCAGCCCCUGUCAGAUUCUGGUGAAUCUACGAAUUCUGCUGUAUAUCUC have a reported self-cleavage of at least 0.3?
false (0)

In plain terms: is recorded self-cleavage at least 0.3 for UAACAGGGGGCCGCAGCAGAAGCGUUCACGUCGCAGCCCCUGUCAGAUUCUGGUGAAUCUGCGAAUUCUGCUGAAUAUCUC ?
true (1)

Source of measurements: the RNAGym collection of RNA variant scans (doi:10.1093/nar/gkz1192)
